molecular target: T1, human CD8A-Fc (recombinant human CD8 alpha fused to Fc fragment of human IgG1) (human, UniProt P01732 22-182, limits assumed); assay: SPR, dissociation rate on recombinant CD8 alpha
T1 construct: SPR ligand, captured by goat anti-human Fc; also called hCD8A-Fc; recombinant CD8 alpha; not shown: linker with flag (and polyhistidine) tag and Fc fragment of human IgG1; depends on which of the two constructs was used
T1 sequence (P01732 22-182 limits assumed): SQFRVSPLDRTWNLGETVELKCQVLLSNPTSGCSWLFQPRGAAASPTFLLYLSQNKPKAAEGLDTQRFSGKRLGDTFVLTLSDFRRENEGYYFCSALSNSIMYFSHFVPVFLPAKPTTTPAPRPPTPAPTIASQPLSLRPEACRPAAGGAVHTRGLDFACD
property_label: koff (s⁻¹)

Example binders with recorded koff:
CD8S377 (designed binder, W81E mutant of P282DR9P1359_F5; the entry holds the mutation) LPAPKNLVVSRVTEDSARLSWTAPDAAFDSFQIAYPEWPPPGEAIVLTVPGSERSYDLTGLKPGTEYFVIIQGVKGGVESEPLSAIFTT
0.0004
CD8S402 (designed binder, D40P mutant of P282DR9P1359_C5; the entry holds the mutation) LPAPKNLVVSRVTEDSARLSWTAPDAAFDSFWITYPEWPPPGGEAIVLTVPGSERSYDLTGLKPGTEYFVVIYGVKGGEIYSPLSAIFTT
4.84e-05
CD8S387 (designed binder, W83E mutant of P282DR9P1359_G7; the entry holds the mutation) LPAPKNLVVSRVTEDSARLSWTAPDAAFDSFAITYIEKEHIEDGEAIVLTVPGSERSYDLTGLKPGTEYWVPIWGVKGGANSEPLSAIFTT
0.000125
P282DR9P1359_F5 (designed binder, FN3 domain (Centyrin); purified as His-tagged protein, tag not in the entry) LPAPKNLVVSRVTEDSARLSWTAPDAAFDSFQIAYPEWPPPGEAIVLTVPGSERSYDLTGLKPGTEYFVIIQGVKGGVESWPLSAIFTT
5.78e-05

I = CD8S396 (designed binder, W32Y mutant of P282DR9P1359_C5; the entry holds the mutation) LPAPKNLVVSRVTEDSARLSWTAPDAAFDSFYITYPEWPDPGGEAIVLTVPGSERSYDLTGLKPGTEYFVVIYGVKGGEIYSPLSAIFTT
II = CD8S375 (designed binder, W81L mutant of P282DR9P1359_F5; the entry holds the mutation) LPAPKNLVVSRVTEDSARLSWTAPDAAFDSFQIAYPEWPPPGEAIVLTVPGSERSYDLTGLKPGTEYFVIIQGVKGGVESLPLSAIFTT
III = CD8S404 (designed binder, P36A mutant of P282DR9P1359_C5; the entry holds the mutation) LPAPKNLVVSRVTEDSARLSWTAPDAAFDSFWITYAEWPDPGGEAIVLTVPGSERSYDLTGLKPGTEYFVVIYGVKGGEIYSPLSAIFTT
IV = CD8S379 (designed binder, D43S mutant of P282DR9P1359_G7; the entry holds the mutation) LPAPKNLVVSRVTEDSARLSWTAPDAAFDSFAITYIEKEHIESGEAIVLTVPGSERSYDLTGLKPGTEYWVPIWGVKGGANSWPLSAIFTT
V = CD8S374 (designed binder, W81Y mutant of P282DR9P1359_F5; the entry holds the mutation) LPAPKNLVVSRVTEDSARLSWTAPDAAFDSFQIAYPEWPPPGEAIVLTVPGSERSYDLTGLKPGTEYFVIIQGVKGGVESYPLSAIFTT
Request: Form: Sort by [koff] Order [ ascending ] // list labels; follow requested order
Result: IV, I, V, II, III
(IV: 4.97e-05 s⁻¹, I: 0.000152 s⁻¹, V: 0.000403 s⁻¹, II: 0.00083 s⁻¹, III: 0.0309 s⁻¹)
